Catalogue of polymerase ribozyme fitness (log ratio) readings, one per entry.
B1: TPR 5TU (parent)
chain: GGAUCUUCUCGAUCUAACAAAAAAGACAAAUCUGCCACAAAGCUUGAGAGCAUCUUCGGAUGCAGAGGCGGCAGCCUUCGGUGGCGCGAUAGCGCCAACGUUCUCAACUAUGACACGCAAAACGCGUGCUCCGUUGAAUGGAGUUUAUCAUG

Variants of: B1
assayProtocol: polymerase ribozyme fitness, log enrichment relative to wild type (log ratio); higher = more active; in vitro selection for triplet polymerase activity
Variants at the floor of the assay were thinned out.

# count of solved cases: 10
[[record]]
alteration = "C116A U148C"
reportedresult = -3.09

[[record]]
alteration = "A20G A41G C54U U56A C93G A120G U139G"
reportedresult = -2.99

[[record]]
alteration = "A16G G48A C57A C76U A89C C95A C116G C131A G136C"
reportedresult = "≤ -4.2"

[[record]]
alteration = "U55G U127G"
reportedresult = -2.9

[[record]]
alteration = "G42A A52G G70C G141C"
reportedresult = "≤ -4.2"

[[record]]
alteration = "U55A G126C"
reportedresult = 1.42

[[record]]
alteration = "A30C C43G U45A C87A C103A"
reportedresult = "≤ -4.2"

[[record]]
alteration = "C54A G70A C95U A120G"
reportedresult = -3.62

[[record]]
alteration = "A73G G86A A98U G117U C149U"
reportedresult = -4.18

[[record]]
alteration = "G48A G62A G68C U78G C87A A91U A98U"
reportedresult = "≤ -4.2"


Data request: Item under review: C57G C93A A113G A120C . Reported polymerase ribozyme fitness (log ratio)?
Data returned: -4.13

Data request: Item under review: A39G A49U U55A U56A A91U . Reported polymerase ribozyme fitness (log ratio)?
Data returned: ≤ -4.2

Data request: Item under review: C27U G81U C85U . Reported polymerase ribozyme fitness (log ratio)?
Data returned: -2.15

Data request: Item under review: A22U C27U G86U . Reported polymerase ribozyme fitness (log ratio)?
Data returned: -3.28

Data request: Item under review: A39U U53A U56C A60C U61A G86U A89G . Reported polymerase ribozyme fitness (log ratio)?
Data returned: -4.17

Data request: Item under review: A49G C51A U53C C87G . Reported polymerase ribozyme fitness (log ratio)?
Data returned: ≤ -4.2

Data request: Item under review: A73G G126A . Reported polymerase ribozyme fitness (log ratio)?
Data returned: -0.377

Data request: Item under review: U15A U31A G83U C103G U139A . Reported polymerase ribozyme fitness (log ratio)?
Data returned: ≤ -4.2

Data request: Item under review: G59U A60G C93U . Reported polymerase ribozyme fitness (log ratio)?
Data returned: -3.87

Data request: Item under review: C18U U56A U90G C99U A120C C132U U134C . Reported polymerase ribozyme fitness (log ratio)?
Data returned: ≤ -4.2

Data request: Item under review: U33G G58C A120G G133C . Reported polymerase ribozyme fitness (log ratio)?
Data returned: -3.81

Data request: Item under review: C38U A73U C87U C96A A122G U145A . Reported polymerase ribozyme fitness (log ratio)?
Data returned: -2.54

Data request: Item under review: G34A G71C C105G G143U . Reported polymerase ribozyme fitness (log ratio)?
Data returned: ≤ -4.2

Data request: Item under review: G50A C75U A91U A150C . Reported polymerase ribozyme fitness (log ratio)?
Data returned: ≤ -4.2

Data request: Item under review: U9A U15G G50C G94A U135C G143A . Reported polymerase ribozyme fitness (log ratio)?
Data returned: ≤ -4.2

Hello, the source for this data is the RNAGym collection of RNA variant scans (doi:10.1073/pnas.2313332121), in case you need it.
